Target: GST-Co-NF-kB (Capsaspora owczarzaki, UniProt F1ARL5 200-546)
Sequence: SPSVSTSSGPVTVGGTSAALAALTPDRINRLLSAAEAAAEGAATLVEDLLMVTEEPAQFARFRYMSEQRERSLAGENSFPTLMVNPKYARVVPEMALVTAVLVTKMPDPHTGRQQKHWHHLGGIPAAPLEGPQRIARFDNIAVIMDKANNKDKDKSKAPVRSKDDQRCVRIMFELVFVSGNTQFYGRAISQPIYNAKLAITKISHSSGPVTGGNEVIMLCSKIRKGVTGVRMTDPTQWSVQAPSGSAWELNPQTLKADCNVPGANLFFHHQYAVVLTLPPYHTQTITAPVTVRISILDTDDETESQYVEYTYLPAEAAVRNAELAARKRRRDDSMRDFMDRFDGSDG
Experiment: protein-binding microarray (PBM); PBM: ~300 nM protein, 6 mM HEPES pH 7.8, 80 mM KCl, 0.5 mM EDTA, 0.5 mM EGTA, 6% glycerol, 35 ng/ul poly-dIdC, 1% milk, 1 h, room temperature; Ap Aiptasia and Nv Nematostella (sea anemones) / Co Capsaspora / Aq Amphimedon (sponge) / Dm Drosophila / Hu human; RHD is the Rel homology domain; high values mean tight binding
Settings: dsDNA, one strand shown

chain	units	binding signal
CCGATTAACATCAAAAGAACCCCTGATGTTAATCGGGTCTTGATTCGCTTGACGCTGCTG	z-score	2.76
CCGATTAACATCAAGAAAGTCCCTGATGTTAATCGGGTCTTGATTCGCTTGACGCTGCTG	z-score	1.38
CCGATTAACATCACTCTTTTCCCTGATGTTAATCGGGTCTTGATTCGCTTGACGCTGCTG	z-score	2.99
CCGATTAACATCAGGCATACCCCTGATGTTAATCGGGTCTTGATTCGCTTGACGCTGCTG	z-score	1.89
CCGATTAACATCATCAGGGGAAATGATGTTAATCGGGTCTTGATTCGCTTGACGCTGCTG	z-score	5.8
CCGATTAACATCACCTATTCCCCTGATGTTAATCGGGTCTTGATTCGCTTGACGCTGCTG	z-score	5.72
CCGATTAACATCACAAAGTCCCCTGATGTTAATCGGGTCTTGATTCGCTTGACGCTGCTG	z-score	2.97
CCGATTAACATCAAACCCCCCCGTGATGTTAATCGGGTCTTGATTCGCTTGACGCTGCTG	z-score	5.57
CCGATTAACATCAATAATTACCCTGATGTTAATCGGGTCTTGATTCGCTTGACGCTGCTG	z-score	3.12
CCGATTAACATCAAATAACCCCCTGATGTTAATCGGGTCTTGATTCGCTTGACGCTGCTG	z-score	4.2
CCGATTAACATCATAGTGAGGGGTGATGTTAATCGGGTCTTGATTCGCTTGACGCTGCTG	z-score	1.74
CCGATTAACATCAGGGGGGGGAATGATGTTAATCGGGTCTTGATTCGCTTGACGCTGCTG	z-score	8.84
CCGATTAACATCAGGGAATACCATGATGTTAATCGGGTCTTGATTCGCTTGACGCTGCTG	z-score	2.08
CCGATTAACATCACCCTTGGGAATGATGTTAATCGGGTCTTGATTCGCTTGACGCTGCTG	z-score	2.46
CCGATTAACATCAGATTTTCCCATGATGTTAATCGGGTCTTGATTCGCTTGACGCTGCTG	z-score	5
CCGATTAACATCAGGGAATGTTATGATGTTAATCGGGTCTTGATTCGCTTGACGCTGCTG	z-score	2.75
CCGATTAACATCAACTGGGAAAATGATGTTAATCGGGTCTTGATTCGCTTGACGCTGCTG	z-score	3.52
CCGATTAACATCACCCGGGAAAATGATGTTAATCGGGTCTTGATTCGCTTGACGCTGCTG	z-score	5.18

Recorded values, source paper PMC5700166.
